molecular target: T1, human DLL4, full length, overexpressed on CHO or HEK293 cells (human, UniProt Q9NR61 27-685); test: periplasmic extract; FMAT, Notch1/Fc on CHO-hDLL4
T1 construct: also called CHO-hDLL4; CHO-hDII4
Mark Yes for reported % inhibition of 80% or greater; mark No for anything smaller.

Example entries begin here.
DLLBII104B05 (VHH, also called DLLBII104B5; DLLBII1040B05; not shown: C-terminal c-myc and His6 tags) VHH: EVQLVESGGGSVQAGGSLRLSCAASGSISRIDVMAWYRQAPGKERELVASISSGGSTNYADSVKGRFTISREYFKNMMYLQMNSLKFEDTAVYYCNADSRRGGVGNFFRSWGQGTQVTVSS ... Yes
DLLBII61F05 (VHH, also called DLLBII61F5; not shown: C-terminal c-myc and His6 tags) VHH: EVQLVESGGGLVQPGGSLRLSCTASGFTFSSYAMSWVRQAPGKGLEWVSFINKDGSDTGYADSVKGRFTISRDNAKNTMYLQMNSLKPEDTAVYFCETRTSRSPRPRGQGTQVTVSS ... No
DLLBII62C11 (VHH, not shown: C-terminal c-myc and His6 tags) VHH: EVQLMESGGGLVQPGGSLRLSCVAAGFTFSNYYMSWVRQAPGKGLEWVSVISPDGSNTYYADTVKGRFTISRGNAKNTLFLQMTGLKSEDAAVYYCARGSGSWGVHGQGTQVTVSS ... No
DLLBII58A11 (VHH, not shown: C-terminal c-myc and His6 tags) VHH: EVQLVESGGGLVQAGGSLRLSCTTSERTVSRYSMGWFRQAPGKEREAVATISWSGDSTYYADSVKGRFTISRDNTKNTLYLQIDSLKPEDTAVYYCVAKPNLKYGSYWPPRGYDYWGQGTQVTVSS ... Yes
DLLBII112A04 (VHH, also called DLLBII112A4; not shown: C-terminal c-myc and His6 tags) VHH: EVQLVESGGGLVQAGGSLRLSCAAFGRTPYGMGWFRQAPGKEREFVAAITSDGSTNYADSVKGRFTISRDNAKNAVSLQMNSLKPEDTAVYYCTAPYYSDFEGTTTEYDYWGQGTQVTVSS ... No
DLLBII112A03 (VHH, also called DLLBII112A3; not shown: C-terminal c-myc and His6 tags) VHH: EVQLVESGGGLVQPGGSLRLSCAASGIRFSINGMGWYRQAPGKQREAVATITRGGIRDYTDSVKGRFTISRDIARNTVYLQMNNLKPEDSAVYYCNIDIYWGRGTQVTVSS ... No

Now take the following binder into account.
## Task Determine whether measured % inhibition meets or exceeds 80% for DLLBII80E08 (VHH, also called DLLBII80E8; not shown: C-terminal c-myc and His6 tags) VHH: EVQLVESGGGLVQAGGSLTLSCAASGGTFTTYAMGWFRQAPGKEREFVAAVSRFGVSWDYADSVKGRFTISRDNTANTLKLRMNSLKADDTAVYYCAAGGRSFLPFVPAYWGQGTQVTVSS
## Result No
